# ASSAY METHOD TEXT: Plasma chemistry markers after subcutaneous administration in beagle dogs (Example 8)
# TEST CONTEXT: 30 mg/kg subcutaneous days 1, 3, 5, 8, 15, 22, 29, plasma at day 31
Quick reference: AST of the listed items.
Express it in IU/L; write the number only.

790615 (CCAATGAGAATGCTTC; 3-10-3 cEt gapmer, further chemistry not given here) [compound 790615] :: 41
830025 (antisense TTTGTAAATCGAAAGC; 3-10-3 cEt gapmer, further chemistry not given here) [compound 830025] :: 38

Bench note: what AST did 798781 (CGTAAGATTCACAGCA; 3-10-3 cEt gapmer, further chemistry not given here) [compound 798781] show?
45

====

# Tested on: human SMAD7 mRNA
# ASSAY METHOD TEXT: Antisense inhibition of human SMAD7 mRNA expression in Hep3B cells by 3-10-3 cEt gapmers, 10,000 nM, electroporation (Example 2)
# Assay type: cell-based
# TEST CONTEXT: SMAD7 mRNA, Hep3B cells, 10,000 nM antisense oligonucleotide, electroporation, approximately 24 hours, primer probe set RTS5062, relative to untreated control cells
Strand notation (5' to 3'): a small letter for the sugar, then the base; units joined by * are phosphorothioate-linked, units joined directly phosphodiester-linked; [ ] holds rarer units or linkages, { } end groups; capitals alone tell only the bases. k = constrained ethyl (cEt); [5mC] = 5-methylcytosine; d = 2'-deoxy (DNA)
OUTCOME MEASURE: % Inhibition
Don't forget the unit after the value.

Record excerpt, results attached:
829739 (antisense kT*kG*k[5mC]*dT*dA*dA*dG*dG*dA*dG*d[5mC]*dG*dA*kA*k[5mC]*kA) [compound 829739] :: 44%
829728 (antisense kG*kG*k[5mC]*dG*d[5mC]*dA*dG*dG*d[5mC]*dG*dA*d[5mC]*dA*kG*k[5mC]*kA) [compound 829728] :: 44%
829716 (antisense kG*kT*k[5mC]*dT*d[5mC]*d[5mC]*d[5mC]*dG*dG*dA*dG*dG*d[5mC]*k[5mC]*kG*kG) [compound 829716] :: 10%

Bench note: what % Inhibition did 829734 (antisense kT*k[5mC]*k[5mC]*dG*d[5mC]*dA*d[5mC]*dA*d[5mC]*d[5mC]*dA*dT*dG*kA*kA*kG) [compound 829734] show?
71%

Bench note: what % Inhibition did 799144 (antisense kT*kT*kG*dG*dG*dT*dT*dA*dT*dG*dA*d[5mC]*dG*kG*kA*k[5mC]) [compound 799144] show?
72%

Bench note: what % Inhibition did 799583 (kA*kA*kG*dA*d[5mC]*dA*dA*dA*d[5mC]*d[5mC]*dT*dT*d[5mC]*k[5mC]*kG*kA; antisense) [compound 799583] show?
74%

====

# Tested on: human peripheral blood mononuclear cells (PBMCs)
# ASSAY METHOD TEXT: Human PBMC activation assay, cytokine levels (IL-10, IL-6, MCP-1, TNF-α) in supernatant after 24 hours (Example 9)
# TEST CONTEXT: human PBMC supernatant after 24 hours; 0.064 μM oligonucleotide
Quick reference: Levels of MCP-1 of the listed items.
Express it in pg/mL; write the number only.

Record excerpt, results attached:
830025 (antisense TTTGTAAATCGAAAGC; 3-10-3 cEt gapmer, further chemistry not given here) [compound 830025] :: 353.9
736697 (antisense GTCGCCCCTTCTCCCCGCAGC; chemistry not fully specified) [compound 736697] :: 385.9
830037 (antisense CTATTGGCTGATCTGG; 3-10-3 cEt gapmer, further chemistry not given here) [compound 830037] :: 557.1
830121 (AGAATCAAGCCCTGGC; 3-10-3 cEt gapmer, further chemistry not given here) [compound 830121] :: 370.4
790615 (CCAATGAGAATGCTTC; 3-10-3 cEt gapmer, further chemistry not given here) [compound 790615] :: 281.8
829994 (GGAGGCAGGGCCGCGA; 3-10-3 cEt gapmer, further chemistry not given here) [compound 829994] :: 379.8

Turning now to a further substance:
Bench note: what Levels of MCP-1 did 798781 (CGTAAGATTCACAGCA; 3-10-3 cEt gapmer, further chemistry not given here) [compound 798781] show?
387.0

Each recorded value in this set is attributed to patent US10517889B2.
